# experimental protocol: in vitro
# conditions: human, hela cells, % viability
Exercise: for every item that follows, state its recorded viability at 28.5 h, 10 µM.
Give bare numbers, in %.

Below are some compounds; for each one, tell me its viability at 28.5 h, 10 µM.
1. CCCNC(=O)C[C@@H]1CCN(C(=O)c2ccnc(Cl)c2)C[C@@H]1CC
2. COC(=O)c1sc2cc(NC(=S)NNC(=O)c3ccoc3C)ccc2c1Cl
3. N#C/C(=C/c1cn(CC(=O)O)c2ccccc12)c1ccc(C(=O)O)cc1
4. CN(C(=O)CN1CCCC1Cn1cccn1)C1(C#N)CCCCC1 (stereo not drawn)
5. CCNc1cc2ccccc2c(-c2cccc(C(F)(F)F)c2)n1
6. Cc1ccc2c(c1)oc(=O)n2CCNC(=O)c1cccs1
7. COc1ccc(NC(=O)Nc2nn(Cc3c(F)cccc3Cl)cc2Br)c(OC)c1

Reply:
99.3
83.3
111
88.6
101
99.9
83.8

Below are some compounds; for each one, tell me its viability at 28.5 h, 10 µM.
1. COc1ccc(Nc2ccc(-c3cnc(OC)nc3OC)cn2)c(C)c1
2. O=C(O)C(CC(=O)N1CCOCC1)NCc1ccccc1 (stereo not drawn)

Reply:
1: 115; 2: 100
